Target: human recombinant Yes [a.a. 2–543 (end)] (Homo sapiens, UniProt P07947)
Construct: human recombinant Yes [a.a; 2–543 (end)]; purchased BPS Bioscience 40488
Sequence (P07947 2-543): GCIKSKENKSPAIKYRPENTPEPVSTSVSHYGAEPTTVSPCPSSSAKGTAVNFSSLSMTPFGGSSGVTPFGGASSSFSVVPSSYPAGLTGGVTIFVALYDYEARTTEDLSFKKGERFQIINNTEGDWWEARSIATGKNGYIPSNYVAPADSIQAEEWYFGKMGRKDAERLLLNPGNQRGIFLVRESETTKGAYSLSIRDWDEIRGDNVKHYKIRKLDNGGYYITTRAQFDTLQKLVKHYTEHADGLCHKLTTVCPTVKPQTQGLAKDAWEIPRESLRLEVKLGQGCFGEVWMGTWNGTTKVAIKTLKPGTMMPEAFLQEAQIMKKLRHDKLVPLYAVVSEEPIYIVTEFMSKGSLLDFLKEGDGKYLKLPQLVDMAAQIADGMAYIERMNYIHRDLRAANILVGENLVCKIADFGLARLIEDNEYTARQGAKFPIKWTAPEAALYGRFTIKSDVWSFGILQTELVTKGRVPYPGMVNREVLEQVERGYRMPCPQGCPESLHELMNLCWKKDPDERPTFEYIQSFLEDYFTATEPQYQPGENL
Test: ADP-Glo kinase assay, inhibition rates of Yes phosphorylation activity (first and second screening)
Format: biochemical
Settings: first screening; mean of n = 4 wells; 10 μmol L−1 compound
reported property: First screening IR (inhibition rate) (%)
All answers are understood in %, so give the number only.

Input: Please look up its First screening IR (inhibition rate): CCn1c(C)cc(C(=O)N2CCc3[nH]c4ccccc4c3C2)c1C
Output: 6

Input: What would you report for Cc1cc(NC(=O)c2cc(-c3cccs3)on2)n(CCC#N)n1 ?
Output: -3

Input: What would you report for CCOC(=O)COc1ccc(C2(C)NC(=O)c3cc(Cl)ccc3N2)cc1 (centres unmarked) ?
Output: 5

Input: What would you report for Cc1ccc(OCCSCc2nc(N)nc(Nc3ccc(F)cc3)n2)cc1 ?
Output: 9

Input: What would you report for CCN(Cc1ccc(Cl)s1)C(=O)NCc1ccnc(N2CCN(C)CC2)c1 ?
Output: 9

Input: What would you report for COC(=O)c1sc2ncc(/C=C3\C(=O)Nc4ccccc43)cc2c1C ?
Output: -4

Input: What would you report for FC(F)(F)c1ccnc(Nc2cccc(/C=C/c3ccccn3)c2)n1 ?
Output: 12

Input: What would you report for CCN(CC)S(=O)(=O)c1c[nH]c(C(=O)NCc2nc(C)cs2)c1 ?
Output: 9

Input: What would you report for O=C(Nc1n[nH]c(-c2ccc(F)cc2)n1)c1ccccc1F ?
Output: -11

Input: What would you report for N#Cc1ccc(NC(=O)c2ccn(-c3ccc(F)cc3)n2)cc1 ?
Output: 44

Input: What would you report for CCCCCNS(=O)(=O)CCS(C)(=O)=O ?
Output: -9

Input: What would you report for O=c1[nH]cnc2c1c(-c1ccccc1)cn2-c1ccc(F)cc1 ?
Output: 7

Input: What would you report for CN(Cc1ccc(C(=O)NCC(F)(F)F)cc1)c1cc(Cl)nc(N)n1 ?
Output: 10

Input: What would you report for O=C(NCCc1cnn(-c2ccccc2)c1)c1cnn(-c2ccccc2)c1 ?
Output: -7

Input: What would you report for CCN(CC)c1ccc2c(c1)OC(=O)N(c1ccc(Cl)c(Cl)c1)P2(=Nc1ccc(C)cc1)N(CC)CC (centres unmarked) ?
Output: -2

Input: What would you report for Cc1[nH]n(-c2ccccc2)c(=O)c1/C(=N/NC(=O)c1cc(-c2ccccc2)n[nH]1)c1ccccc1 ?
Output: 1

Input: What would you report for Cc1ccc(NC(=O)C(C)Sc2ncnc3sc4c(c23)CCC4)cc1 (centres unmarked) ?
Output: -9
